Just for reference, patent US11746100B2 is where these values come from.

# pEC50 values compiled below
- target under test: human ferroportin (Homo sapiens, UniProt Q9NP59)
- Construct: luciferase reporter (read with the Nano-Glo Luciferase Assay System); expressed in transfected cells; host or cells: CHO cells, stably transfected, expression induced with doxycycline
- Sequence (Q9NP59 whole entry): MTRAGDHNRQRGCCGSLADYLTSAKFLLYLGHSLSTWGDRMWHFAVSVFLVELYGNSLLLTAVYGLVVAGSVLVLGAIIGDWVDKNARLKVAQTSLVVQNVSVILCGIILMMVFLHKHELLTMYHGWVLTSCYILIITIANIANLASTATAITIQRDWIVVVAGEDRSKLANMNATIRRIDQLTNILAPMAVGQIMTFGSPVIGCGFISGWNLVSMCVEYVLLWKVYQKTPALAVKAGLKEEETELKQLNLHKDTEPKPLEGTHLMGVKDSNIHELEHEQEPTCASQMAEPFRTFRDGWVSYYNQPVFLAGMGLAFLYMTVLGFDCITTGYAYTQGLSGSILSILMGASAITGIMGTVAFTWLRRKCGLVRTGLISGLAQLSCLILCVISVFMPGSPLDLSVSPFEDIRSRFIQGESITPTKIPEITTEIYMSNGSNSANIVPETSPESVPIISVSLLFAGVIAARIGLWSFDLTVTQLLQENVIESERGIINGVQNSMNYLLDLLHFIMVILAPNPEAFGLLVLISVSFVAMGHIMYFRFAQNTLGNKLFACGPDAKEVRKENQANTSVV
- test: Biological in-vitro ferroportin internalization assay (luciferase reporter)
- Assay type: cell-based
- settings: average pEC50; stably-transfected CHO cell line expressing human ferroportin tagged to a luciferase reporter; 6 h incubation with test compound
Number only, please.

compound="CN(CC(=O)NC1CCOCC1)c1nc(-c2cc(OCCO)ccn2)nc2c1CCC2 [Compound 140]" endpoint_name=pEC50 numeric_readout=7
compound="CN(CCOc1ccccc1)c1nc(-c2ccccn2)nc2c1CCC2 [Compound 87]" endpoint_name=pEC50 numeric_readout=6.6
compound="CN(CC(=O)NC(C)(C)C)c1nc(-c2ccc(Cl)cn2)nc2c1CCC2 [Compound 300]" endpoint_name=pEC50 numeric_readout=6.2
compound="CN(CC(=O)NC(C)(C)C)c1nc(-c2cc(OCCN3CCOCC3)ccn2)nc2c1CCC2 [Compound 460]" endpoint_name=pEC50 numeric_readout=8.2
compound="CN(CC(=O)Nc1ccc(C2CC2)nc1)c1nc(-c2cc(OCCO)ccn2)nc2c1CCC2 [Compound 308]" endpoint_name=pEC50 numeric_readout=8.1
compound="COc1ccc(NC(=O)CN(C)c2nc(-c3cc(OCCO)ccn3)nc3c2CCC3)cn1 [Compound 187]" endpoint_name=pEC50 numeric_readout=7.9

# pEC50 (compound: C[C@H]1OC[C@@H]1Oc1ccnc(-c2nc3c(c(N(C)CC(=O)NC(C)(C)C)n2)CCC3)c1 (racemic) [Compound 333] ) is 7.8

# pEC50 (compound: CSc1ccnc(-c2nc3c(c(N(C)CC(=O)NC(C)(C)C)n2)CCC3)c1 [Compound 498] ) is 7.5

# pEC50 (compound: CN(CC(=O)NC1(C)CCC1)c1nc(-c2cc(OCCO)ccn2)nc2c1CCC2 [Compound 376] ) is 8

# pEC50 (compound: COc1ccc(NC(=O)CN(C)c2nc(-c3cc(OC)ccn3)nc3c2CCC3)nc1 [Compound 152] ) is 7.9

# pEC50 (compound: CN(CC(=O)NC(C)(C)CO)c1nc(-c2ccccn2)nc2c1CCC2 [Compound 61] ) is 7.1

====

- target under test: human ferroportin (Homo sapiens)
- Construct: luciferase reporter (read with the Nano-Glo Luciferase Assay System); expressed in transfected cells; host or cells: CHO cells, stably transfected, expression induced with doxycycline
- test: Biological in-vitro ferroportin internalization assay (luciferase reporter)
- Format: cell-based
- settings: average pEC50; stably-transfected CHO cell line expressing human ferroportin tagged to a luciferase reporter; 6 h incubation with test compound
endpoint name: pEC50
Number only, please.

Example entries and their recorded answers appear below.
smiles_input=CN(CC(=O)Nc1ccc(F)nc1)c1nc(-c2cn(C)cn2)nc2c1CCC2 numeric_readout=7.2
smiles_input=CCOc1ccnc(-c2nc3c(c(N(C)CC(=O)Nc4cnc(OC)nc4)n2)CCC3)c1 numeric_readout=7.1
smiles_input=O=C(NC1CCCCC1)C1CN(c2nc(-c3ccccn3)nc3c2CCC3)C1 numeric_readout=5.9
smiles_input=CN(CC(=O)NC(C)(C)C)c1nc(-c2cc3scnc3cn2)nc2c1CCC2 numeric_readout=6.9

Record CN(CC(=O)N[C@@H]1CCOC1)c1nc(-c2cc(OCC(C)(C)O)ccn2)nc2c1CCC2 / human ferroportin (Homo sapiens), pEC50 recorded as 7.4

Record CN(CC(=O)NC(C)(C)C)c1nc(-c2cc(OCCOc3cccnn3)ccn2)nc2c1CCC2 / human ferroportin (Homo sapiens), pEC50 recorded as 8.5

Record COc1ccnc(-c2nc3c(c(N(C)CC(=O)Nc4ccc(=O)n(C)c4)n2)CCC3)c1 / human ferroportin (Homo sapiens), pEC50 recorded as 7.3

Record CC(C)NC(=O)CN(C)c1nc(-c2cc(OCCN3CCOCC3=O)ccn2)nc2c1CCC2 / human ferroportin (Homo sapiens), pEC50 recorded as 7.3

Record CN(CC(=O)NC(C)(C)C)c1nc(-c2cc(-c3cnn(C)c3)ccn2)nc2c1CCC2 / human ferroportin (Homo sapiens), pEC50 recorded as 7.6
